Biological target: human LAT-1 (Homo sapiens (Human), UniProt Q01650)
Sequence (Q01650 whole entry): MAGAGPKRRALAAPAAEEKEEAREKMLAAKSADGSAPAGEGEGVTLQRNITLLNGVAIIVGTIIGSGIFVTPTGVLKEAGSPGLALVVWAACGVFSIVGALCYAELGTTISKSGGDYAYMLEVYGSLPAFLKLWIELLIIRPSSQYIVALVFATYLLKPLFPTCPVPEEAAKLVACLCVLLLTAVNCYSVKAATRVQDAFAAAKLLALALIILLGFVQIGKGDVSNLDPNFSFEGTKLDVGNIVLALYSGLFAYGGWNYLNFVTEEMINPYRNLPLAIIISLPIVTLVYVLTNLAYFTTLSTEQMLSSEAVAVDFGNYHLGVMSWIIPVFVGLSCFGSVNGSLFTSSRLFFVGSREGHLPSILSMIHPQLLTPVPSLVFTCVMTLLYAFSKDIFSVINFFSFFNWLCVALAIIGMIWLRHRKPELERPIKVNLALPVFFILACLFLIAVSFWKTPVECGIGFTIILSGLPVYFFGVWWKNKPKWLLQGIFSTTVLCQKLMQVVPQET
Sequence (P08195 102-630 partner): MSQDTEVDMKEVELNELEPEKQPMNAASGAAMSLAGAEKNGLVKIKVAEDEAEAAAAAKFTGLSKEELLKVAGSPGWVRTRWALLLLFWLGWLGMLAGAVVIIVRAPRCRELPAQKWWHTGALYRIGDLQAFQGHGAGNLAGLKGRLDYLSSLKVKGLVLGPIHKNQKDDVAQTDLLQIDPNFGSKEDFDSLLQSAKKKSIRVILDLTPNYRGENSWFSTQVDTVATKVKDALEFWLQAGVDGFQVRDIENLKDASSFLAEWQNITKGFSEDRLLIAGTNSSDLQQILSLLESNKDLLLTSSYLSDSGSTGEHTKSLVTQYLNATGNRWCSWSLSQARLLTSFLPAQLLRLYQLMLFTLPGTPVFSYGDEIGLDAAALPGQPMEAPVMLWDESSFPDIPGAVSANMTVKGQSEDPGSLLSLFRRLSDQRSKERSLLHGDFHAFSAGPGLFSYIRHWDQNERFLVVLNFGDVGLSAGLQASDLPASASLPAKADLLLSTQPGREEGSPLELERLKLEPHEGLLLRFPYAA
Assay: Inhibition of [14C]L-leucine uptake into human LAT-1 stably expressing HEK293 cell line (uptake buffer, 1 min)
Format: cell-based
Settings: HEK293 human LAT-1 stably expressing cells; Na+-free HBSS pH7.4; [14C]L-leucine or alanine 1 μM, uptake 1 min; read-out: LAT-1 inhibitory activity/IC50
pIC50: −log10 of the molar value.
If the reported pIC50 equals or exceeds 4, assign fulfilled. If not, assign not fulfilled.

compound="NCCCCC(Oc1ccc(C(F)(F)F)cc1)c1cccs1 (centres unmarked)" assigned_class=fulfilled
compound="NCCCCC(Oc1ccc(OC(F)(F)F)cc1)c1ccccc1 (centres unmarked)" assigned_class=fulfilled
compound="NCCCC[C@H](Oc1ccc(C(F)(F)F)c(F)c1)c1ccccc1.O=C(O)/C=C/C(=O)O [Example 69, fumarate]" assigned_class=fulfilled
compound="NCCCCC(Oc1ccc(C(F)(F)F)cc1)c1cccc(F)c1 (centres unmarked)" assigned_class=fulfilled
compound="CCC(C)c1ccc(OC(CCCCN)c2ccccc2)cc1 (centres unmarked)" assigned_class=fulfilled
compound="NCCCCC(Oc1ccc(OC(F)(F)F)c(F)c1)c1cccs1 (centres unmarked)" assigned_class="not fulfilled"
compound="NCCCCC(Oc1ccc(C(F)(F)F)c(F)c1)c1ccccc1 (centres unmarked)" assigned_class=fulfilled
compound="NCCCC[C@H](Oc1ccc(OC(F)(F)F)cc1)c1ccccc1.O=C(O)/C=C/C(=O)O [Example 71, fumarate]" assigned_class="not fulfilled"

Numbers sourced from patent US9771316B2.
